- System: A549
- assay name: Cytotoxicity against human A549 cells after 48 hrs by MTT assay
- Format: functional, cell-based
- conditions used: A549, 48 h
pEC50: −log10 of the molar value.
measurement kind: pEC50

{"smi": "CO[C@@H]1O[C@H](COc2ccc(OC3CCCCC3)cc2)[C@@H](O)[C@H](O)[C@H]1Oc1ccc(OC2CCCCC2)cc1", "tested on": "A549", "meas value": 4.60}
{"smi": "CO[C@H]1O[C@H](COc2ccc(OC3CCCCC3)cc2)[C@@H](O)[C@H](O)[C@H]1Oc1ccc(OC2CCCCC2)cc1", "tested on": "A549", "meas value": 4.74}
{"smi": "CO[C@H]1O[C@H](COc2ccc(C3CCCCC3)cc2)[C@@H](O)[C@H](O)[C@H]1Oc1cccc2c1CCCC2", "tested on": "A549", "meas value": 4.55}
{"smi": "CO[C@H]1O[C@H](COc2ccc3c(c2)CCCC3)[C@@H](O)[C@H](O)[C@H]1Oc1cccc(C(C)C)c1", "tested on": "A549", "meas value": 4.40}
{"smi": "CO[C@@H]1O[C@H](COc2ccc(-c3ccccc3)cc2)[C@@H](O)[C@H](O)[C@H]1Oc1cccc(C(C)C)c1", "tested on": "A549", "meas value": 4.46}
{"smi": "CO[C@@H]1O[C@H](COc2cccc(C(C)C)c2)[C@@H](O)[C@H](O)[C@H]1Oc1ccc(OC2CCCCC2)cc1", "tested on": "A549", "meas value": 4.39}
{"smi": "CO[C@@H]1O[C@H](COc2ccccc2C(C)C)[C@@H](O)[C@H](O)[C@H]1Oc1ccc(OC2CCCCC2)cc1", "tested on": "A549", "meas value": 4.39}
{"smi": "CO[C@H]1O[C@H](COc2ccccc2C(C)C)[C@@H](O)[C@H](O)[C@H]1Oc1ccc(OC2CCCCC2)cc1", "tested on": "A549", "meas value": 4.48}
{"smi": "CO[C@H]1O[C@H](COc2ccc(-c3ccccc3)cc2)[C@@H](O)[C@H](O)[C@H]1Oc1ccc(C(C)C)cc1", "tested on": "A549", "meas value": 4.49}
{"smi": "CO[C@H]1O[C@H](COc2ccc(-c3ccccc3)cc2)[C@@H](O)[C@H](O)[C@H]1Oc1cccc(C(C)C)c1", "tested on": "A549", "meas value": 4.49}
{"smi": "CO[C@@H]1O[C@H](COc2ccc(OC3CCCCC3)cc2)[C@@H](O)[C@H](O)[C@H]1Oc1ccc(C(C)C)cc1", "tested on": "A549", "meas value": 4.49}
{"smi": "CO[C@H]1O[C@H](COc2ccc(-c3ccccc3)cc2)[C@@H](O)[C@H](O)[C@H]1Oc1ccccc1", "tested on": "A549", "meas value": 4.44}
{"smi": "CO[C@H]1O[C@H](COc2ccc(OC3CCCCC3)cc2)[C@@H](O)[C@H](O)[C@H]1Oc1ccc(C(C)C)cc1", "tested on": "A549", "meas value": 4.57}

====

- Test system: HeLa
- assay name: Cytotoxicity against human HeLa cells after 48 hrs by MTT assay
- Type: functional, cell-based
pEC50: −log10 of the molar value.
# pEC50 annotations

{"smi": "CO[C@H]1O[C@H](COc2ccc(-c3ccccc3)cc2)[C@@H](O)[C@H](O)[C@H]1Oc1ccccc1", "pEC50": 4.48}
{"smi": "CO[C@@H]1O[C@H](COc2ccc(OC3CCCCC3)cc2)[C@@H](O)[C@H](O)[C@H]1Oc1ccc(C(C)C)cc1", "pEC50": 4.59}
{"smi": "CO[C@H]1O[C@H](COc2ccc(-c3ccccc3)cc2)[C@@H](O)[C@H](O)[C@H]1Oc1ccc(C(C)C)cc1", "pEC50": 4.72}
